- Read-out: CYP2E1 (gene 1571)
- RUN_DESCRIPTION: LTEA_HepaRG_CYP2E1: Life Technologies and Expression Analysis (LTEA) Assay for CYP2E1 using HepaRG (AID 2283485)
- PARTICULARS: mRNA level, 48 h; actives raise or lower the signal
Active and inactive are the calls of the source. How the source made its calls: active means hit-call score of the fitted dose curve at least 0.9, where 1 is the maximum; inactive means score below 0.9.
Could you please pick one outcome from this set? active, inactive

What is the recorded call for this compound in the test? CCCN(CCC)c1c([N+](=O)[O-])cc(C(F)(F)F)cc1[N+](=O)[O-] inactive

What is the recorded call for this compound in the test? COc1nn(CSP(=S)(OC)OC)c(=O)s1 inactive

What is the recorded call for this compound in the test? OCCOc1ccccc1 inactive

What is the recorded call for this compound in the test? O=S(=O)(O)C(F)(F)C(F)(F)C(F)(F)C(F)(F)C(F)(F)C(F)(F)C(F)(F)C(F)(F)F active

What is the recorded call for this compound in the test? Clc1ccccc1-c1nnc(-c2ccccc2Cl)nn1 active

What is the recorded call for this compound in the test? CCCN(CCOc1c(Cl)cc(Cl)cc1Cl)C(=O)n1ccnc1 active

What is the recorded call for this compound in the test? O=C(NC(=O)c1c(F)cccc1F)Nc1ccc(OC(F)(F)C(F)OC(F)(F)F)c(Cl)c1 (stereo unspecified) inactive

What is the recorded call for this compound in the test? O=C(O)COc1ccc(Cl)cc1Cl active

What is the recorded call for this compound in the test? CC1(c2ccc(Oc3ccccc3)cc2)OC(=O)N(Nc2ccccc2)C1=O (stereo unspecified) active

What is the recorded call for this compound in the test? CC(C)(C)C(O)/C(=C\c1ccc(Cl)cc1Cl)n1cncn1 (stereo unspecified) active

What is the recorded call for this compound in the test? CC(C)N(C(=O)COc1nnc(C(F)(F)F)s1)c1ccc(F)cc1 active
